Reference source: ChEMBL document CHEMBL3352520

- Target: UniProt:P12821
- Sequence (P12821 whole entry): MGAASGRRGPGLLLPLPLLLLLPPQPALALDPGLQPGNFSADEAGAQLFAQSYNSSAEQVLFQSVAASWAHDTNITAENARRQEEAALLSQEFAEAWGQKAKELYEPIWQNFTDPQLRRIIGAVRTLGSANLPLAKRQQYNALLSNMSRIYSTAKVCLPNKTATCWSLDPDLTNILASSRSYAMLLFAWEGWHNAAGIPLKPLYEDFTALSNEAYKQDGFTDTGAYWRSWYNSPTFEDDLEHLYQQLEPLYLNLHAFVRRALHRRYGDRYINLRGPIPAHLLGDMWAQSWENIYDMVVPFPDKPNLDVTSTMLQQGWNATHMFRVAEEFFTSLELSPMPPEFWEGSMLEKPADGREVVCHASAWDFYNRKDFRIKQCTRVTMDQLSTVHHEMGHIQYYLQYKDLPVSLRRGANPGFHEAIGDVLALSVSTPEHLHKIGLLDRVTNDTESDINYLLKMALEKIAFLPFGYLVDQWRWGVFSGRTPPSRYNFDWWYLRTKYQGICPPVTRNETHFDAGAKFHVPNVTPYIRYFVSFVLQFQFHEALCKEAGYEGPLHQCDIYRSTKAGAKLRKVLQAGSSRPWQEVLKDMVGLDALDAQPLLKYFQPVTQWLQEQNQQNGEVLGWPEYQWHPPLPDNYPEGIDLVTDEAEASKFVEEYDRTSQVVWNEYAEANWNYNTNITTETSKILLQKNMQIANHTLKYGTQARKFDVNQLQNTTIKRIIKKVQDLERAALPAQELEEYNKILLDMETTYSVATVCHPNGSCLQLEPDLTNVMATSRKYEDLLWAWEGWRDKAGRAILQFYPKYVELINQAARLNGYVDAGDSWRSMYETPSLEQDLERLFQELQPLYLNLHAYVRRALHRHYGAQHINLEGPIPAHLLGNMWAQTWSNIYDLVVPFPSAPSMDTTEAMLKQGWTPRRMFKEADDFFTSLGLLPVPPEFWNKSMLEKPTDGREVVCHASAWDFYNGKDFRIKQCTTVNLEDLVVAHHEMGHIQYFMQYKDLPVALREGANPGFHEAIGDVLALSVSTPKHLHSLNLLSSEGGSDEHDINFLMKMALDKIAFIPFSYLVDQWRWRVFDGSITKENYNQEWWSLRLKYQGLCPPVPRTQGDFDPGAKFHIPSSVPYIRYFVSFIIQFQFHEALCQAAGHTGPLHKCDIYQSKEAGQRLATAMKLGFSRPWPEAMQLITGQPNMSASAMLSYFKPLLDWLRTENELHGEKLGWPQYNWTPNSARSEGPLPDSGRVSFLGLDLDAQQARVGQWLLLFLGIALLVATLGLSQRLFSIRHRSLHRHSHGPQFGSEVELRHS
- Experiment Notes: Inhibition of ACE (unknown origin)
- Set-up: unit not given here
Residues, ends and D or L forms follow the SMILES beside them.
Observation Type: logIC50

See these solved cases before continuing.
In: Lookup: logIC50 / UniProt:P12821 / NCCCC[C@H](NC(=O)[C@@H]1CCCN1)C(=O)N[C@@H](Cc1cnc[nH]1)C(=O)N1CCC[C@H]1C(=O)O (H-PKHP-OH)
Out: 2.85

In: And N[C@@H](Cc1ccc(O)cc1)C(=O)N1CCC[C@H]1C(=O)O (H-Tyr-Pro-OH) ?
Out: 2.86

P = CC(C)[C@H](N)C(=O)N[C@@H](CCCNC(=N)N)C(=O)N1CCC[C@H]1C(=O)O (H-Val-Arg-Pro-OH)
Q = CC(C)C[C@H](NC(=O)[C@H](C)N)C(=O)N1CCC[C@H]1C(=O)O (H-Ala-Leu-Pro-OH)
In: Returns: the label, P or Q , whose recorded logIC50 is the lower number. # reply format: chosen label
Out: P
(P: 0.34, Q: 2.38)
